Test system: Mythimna separata
ASSAY METHOD TEXT: Insecticidal activity against pre-third-instar larvae of Mythimna separata (Oriental armyworm) assessed as corrected mortality rate at 1 mg/ml measured after 20 days by the leaf-dipping method
Type: functional
TEST PARAMETERS: 480 h
Exam item: assign rule met to entries whose mortality at 1000 µg/mL is below 20% and rule not met to entries at or above 20%. Note that a value of exactly 20% receives rule not met.

Worked examples, 3 compounds total:
RECORD SMILES: COc1cc2c(cc1OC)[C@H](OC(=O)Cc1ccccc1)[C@H]1COC(=O)[C@@H]1[C@@H]2c1cc(OC)c(OC)c(OC)c1
CLASS LABEL: rule met

RECORD SMILES: CCCCCC(=O)O[C@H]1c2cc(OC)c(OC)cc2[C@@H](c2cc(OC)c(OC)c(OC)c2)[C@H]2C(=O)OC[C@@H]21
CLASS LABEL: rule not met

RECORD SMILES: COc1cc2c(cc1OC)[C@H](OC(=O)c1ccc([N+](=O)[O-])cc1)[C@H]1COC(=O)[C@@H]1[C@@H]2c1cc(OC)c(OC)c(OC)c1
CLASS LABEL: rule met

Please determine if "COc1cc2c(cc1OC)[C@H](OC(=O)c1ccc(C)cc1)[C@H]1COC(=O)[C@@H]1[C@@H]2c1cc(OC)c(OC)c(OC)c1" is below 20% in terms of mortality at 1000 µg/mL.
rule met

Does the reported mortality at 1000 µg/mL of "CCCCCC(=O)O[C@@H]1c2cc(OCc3ccccc3)c(OCc3ccccc3)cc2[C@@H](c2cc(OC)c(OC)c(OC)c2)[C@H]2C(=O)OC[C@@H]21" stay below 20%?
rule met

Given the entry "COc1cc2c(cc1OC)[C@H](O)[C@H]1COC(=O)[C@@H]1[C@@H]2c1cc(OC)c(OC)c(OC)c1" , would its reported mortality at 1000 µg/mL be below 20%?
rule not met

Hello, I'm reviewing records and need to know if mortality at 1000 µg/mL of "COc1cc2c(cc1OC)[C@H](OC(=O)Cc1cccc3ccccc13)[C@H]1COC(=O)[C@@H]1[C@@H]2c1cc(OC)c(OC)c(OC)c1" is below 20%. Could you check?
rule not met

Please let me know if "COc1cc2c(cc1OC)[C@H](OC(=O)c1cccc(Cl)c1)[C@H]1COC(=O)[C@@H]1[C@@H]2c1cc(OC)c(OC)c(OC)c1" shows mortality at 1000 µg/mL below 20%.
rule not met

Hi there! Is mortality at 1000 µg/mL for "COc1cc([C@@H]2c3cc(OCc4ccccc4)c(OCc4ccccc4)cc3[C@H](O)[C@H]3COC(=O)[C@H]23)cc(OC)c1OC" below 20%, do you know?
rule not met

Hello, I'm reviewing records and need to know if mortality at 1000 µg/mL of "COc1cc2c(cc1OC)[C@H](OC(=O)c1ccccc1)[C@H]1COC(=O)[C@@H]1[C@@H]2c1cc(OC)c(OC)c(OC)c1" is below 20%. Could you check?
rule not met

Taken from ChEMBL document CHEMBL3044889.
